Known Kd of a selection of binders
Biological target: T1, Monomeric 8-histidine tagged human EGFRvIII extracellular domain (human, UniProt P00533 298-645)
T1 construct: Analyte in all SPR assays; not shown: 8-histidine tag
Assay: SPR, captured by anti-mouse Fc, 37 C
Numbers only; they are read as nM.

Example entries and their recorded answers appear below.
BINDER	VAL
12B2 (antibody, V domains shown, Hybridoma supernatant (AlivaMab mouse); captured/detected via mouse Fc) VH: QVTLKESGPVLVKPTETLTLTCTVSGFSLSNPRMGVSWIRQPPGKALEWLGHIFSSDEKSYRLSLRSRLSISKDTSKSQVVLTMTNMDPVDTATYYCVRDSSNYGGYFDYWGQGTLVTVSS VL: EVVMTQSPATLSVSPGERATLSCRASQSVINNLAWYQQKPGQAPRLLIYGTSTRATDIPARFSGSGSGTEFTLTISSLQSEDFAVYYCQDYNNWPFTFGPGTKVDIK	24.3
11F10 (antibody, V domains shown, Hybridoma supernatant (AlivaMab mouse); captured/detected via mouse Fc) VH: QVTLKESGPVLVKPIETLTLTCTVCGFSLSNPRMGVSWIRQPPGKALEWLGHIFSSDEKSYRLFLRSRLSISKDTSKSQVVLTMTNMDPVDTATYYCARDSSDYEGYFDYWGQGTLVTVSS VL: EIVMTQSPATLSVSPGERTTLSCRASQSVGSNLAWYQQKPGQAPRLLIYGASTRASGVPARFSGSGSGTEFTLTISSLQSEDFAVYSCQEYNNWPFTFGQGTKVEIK	42.4

Now, please, on to the next binder.
Task: Fill in: Kd of 29D5 (antibody, V domains shown, Hybridoma supernatant (AlivaMab mouse); captured/detected via mouse Fc) VH: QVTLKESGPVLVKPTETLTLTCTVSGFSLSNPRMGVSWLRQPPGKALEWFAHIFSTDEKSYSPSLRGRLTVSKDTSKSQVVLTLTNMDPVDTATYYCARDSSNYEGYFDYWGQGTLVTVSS VL: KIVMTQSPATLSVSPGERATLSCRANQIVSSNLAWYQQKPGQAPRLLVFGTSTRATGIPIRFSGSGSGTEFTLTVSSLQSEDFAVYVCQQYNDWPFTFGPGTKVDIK is ___
Result: 41.6

These measurements were taken from patent US20190144550A1.
